B1: glmS ribozyme (parent)
chain: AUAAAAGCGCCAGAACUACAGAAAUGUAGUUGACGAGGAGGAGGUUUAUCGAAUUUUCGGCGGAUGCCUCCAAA

variants of: B1; assay: KM; higher = weaker cofactor use; RNA array; details: with glucosamine-6-phosphate
Answer Not fulfilled if KM is under 2000 µM, and Fulfilled if it is 2000 µM or more.

Would you please look over these solved cases?
variant_notation=C58A assigned_class=Fulfilled
variant_notation="G29U A52U" assigned_class=Fulfilled
variant_notation="G32U A42C G51C C67U" assigned_class=Fulfilled
variant_notation="A15U U55C" assigned_class="Not fulfilled"
variant_notation="C16G U31C" assigned_class=Fulfilled

In plain terms: is recorded KM at least 2000 µM for G44A ? Not fulfilled

# repeat for G32A U45A Fulfilled

# repeat for U65G Fulfilled

# repeat for A39U G43U Not fulfilled

# repeat for U69C C71U Not fulfilled

// data source = the supplement of paper PMC7125110
